Below, each entry is listed alongside its reported selectivity ratio.
Assay: Therapeutic ratio of ID50 for ulcerogenicity in Wistar rat to ED50 for antiinflammatory activity against Mycobacterium butyricum adjuvant-induced polyarthritis in Lewis albino rat non-injected paw
Type: ADME
Conditions: in vivo, read-out: TI
The response must contain the number and no unit.

[[record]]
compound = "O=C(O)Cc1ccc2c(c1)C(=O)c1ccccc1CO2 [ISOXEPAC]"
reported_result = 78


Let's switch to this compound now.
-- ask What does the record list as selectivity ratio for COc1ccc2c(c1)c(CC(=O)O)c(C)n2C(=O)c1ccc(Cl)cc1 [INDOMETHACIN] ?
-- reply 6.7

* * *

Experiment: Therapeutic ratio of ID50 for ulcerogenicity in Wistar rat to ED50 for antiinflammatory activity against Mycobacterium butyricum adjuvant-induced polyarthritis in Lewis albino rat adjuvant treated paw
Assay type: ADME
Conditions: in vivo, read-out: TI
Below, each entry is listed alongside its reported selectivity ratio.
The response must contain the number and no unit.

[[record]]
smiles_text = "COc1ccc2c(c1)c(CC(=O)O)c(C)n2C(=O)c1ccc(Cl)cc1"
experimental_endpoint = "selectivity ratio"
reported_result = 3.8


Let's switch to this compound now.
-- ask What does the record list as selectivity ratio for `O=C(O)Cc1ccc2c(c1)C(=O)c1ccccc1CO2` ?
-- reply 39
